Recorded values, source patent US20170267762A1.

Recorded measurements of EC50, one per entry
# target_entity: T1, human PD-1 extracellular domain fused with human Fc tag (hPD-1-hFc) (human)
# T1 construct: also called human PD-1-hFc
# run_description: ELISA on coated PD1-hFc
Please give a number only; it is taken to be in µg/mL.

Item under review: chimeric 14A6-hIgG4 (antibody, V domains shown, Mouse variable regions with human IgG4 constant region) VH: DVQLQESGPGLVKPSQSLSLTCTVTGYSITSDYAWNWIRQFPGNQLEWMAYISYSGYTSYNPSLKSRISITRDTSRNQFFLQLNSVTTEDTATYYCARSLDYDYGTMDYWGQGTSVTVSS VL: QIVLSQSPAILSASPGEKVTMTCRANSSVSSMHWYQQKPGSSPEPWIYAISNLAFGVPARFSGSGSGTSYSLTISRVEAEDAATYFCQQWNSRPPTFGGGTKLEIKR . Reported EC50? 0.0646

Note, next up: chimeric 22A5-hIgG4 (antibody, V domains shown, Mouse variable regions with human IgG4 constant region) VH: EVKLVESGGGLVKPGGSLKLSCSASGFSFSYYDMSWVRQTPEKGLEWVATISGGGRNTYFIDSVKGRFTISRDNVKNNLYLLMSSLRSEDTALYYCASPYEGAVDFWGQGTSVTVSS VL: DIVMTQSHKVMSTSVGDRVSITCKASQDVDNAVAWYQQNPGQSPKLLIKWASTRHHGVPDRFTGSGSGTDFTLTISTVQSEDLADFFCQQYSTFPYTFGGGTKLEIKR 0.0413
